The measured values listed here are drawn from paper PMC10618370.

- Target or test system: UniProtKB P17952
- Sequence (P17952 whole entry): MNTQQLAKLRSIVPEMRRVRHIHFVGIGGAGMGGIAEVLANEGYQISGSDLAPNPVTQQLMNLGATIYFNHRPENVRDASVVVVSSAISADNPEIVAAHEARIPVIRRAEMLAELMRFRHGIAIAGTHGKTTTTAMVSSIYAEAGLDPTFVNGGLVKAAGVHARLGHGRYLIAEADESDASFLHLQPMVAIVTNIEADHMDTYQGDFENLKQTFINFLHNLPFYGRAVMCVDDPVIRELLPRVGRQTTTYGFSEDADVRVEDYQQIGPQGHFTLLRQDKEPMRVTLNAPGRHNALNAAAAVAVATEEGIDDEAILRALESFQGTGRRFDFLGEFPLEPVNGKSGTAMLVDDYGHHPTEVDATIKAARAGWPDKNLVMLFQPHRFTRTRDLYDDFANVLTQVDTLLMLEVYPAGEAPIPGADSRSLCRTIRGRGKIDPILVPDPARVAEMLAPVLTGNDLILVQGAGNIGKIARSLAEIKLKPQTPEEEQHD
- Protocol text: MurC inhibition assay (Malachite green)
- Assay type: biochemical
- Run parameters: 0.25 h; residual activity at 100 µM compound; mean ± SD of three independent experiments; read-out: RA (%) @ 100 µM MurC
Metric: remaining activity at 100 µM (%)
Give bare numbers, in %.

molecule="O=c1c(OC2OC(CO)C(O)C(O)C2O)c(-c2ccc(O)c(O)c2)oc2cc(O)cc(O)c12 (centres unmarked)" metric="remaining activity at 100 µM" measured=89

# batch size: 2; output remaining activity at 100 µM per entry
1. COc1ccc([C@@H]2CC(=O)c3c(O)cc(O)cc3O2)cc1O
2. Oc1cc(O)c2c(c1)O[C@H](c1ccc(O)c(O)c1)[C@@H](O)[C@H]2O

Reply:
1: 100; 2: 95

====

- Target or test system: E. coli MurE (Escherichia coli)
- Sequence (P22188 whole entry): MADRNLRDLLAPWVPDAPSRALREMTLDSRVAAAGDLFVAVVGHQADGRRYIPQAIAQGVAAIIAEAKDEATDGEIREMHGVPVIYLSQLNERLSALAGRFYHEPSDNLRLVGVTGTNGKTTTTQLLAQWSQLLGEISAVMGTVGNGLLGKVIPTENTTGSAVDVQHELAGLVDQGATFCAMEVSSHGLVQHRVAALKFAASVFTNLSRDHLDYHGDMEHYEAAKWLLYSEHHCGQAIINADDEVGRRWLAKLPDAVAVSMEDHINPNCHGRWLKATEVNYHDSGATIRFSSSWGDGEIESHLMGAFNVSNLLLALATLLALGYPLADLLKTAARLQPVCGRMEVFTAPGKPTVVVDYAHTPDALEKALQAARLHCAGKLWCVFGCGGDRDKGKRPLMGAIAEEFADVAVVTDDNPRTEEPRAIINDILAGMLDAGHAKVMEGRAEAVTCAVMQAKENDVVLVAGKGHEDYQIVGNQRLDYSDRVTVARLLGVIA
- Protocol text: MurE inhibition assay (Malachite green)
- Format: biochemical
- Run parameters: 0.25 h; residual activity at 100 µM compound; mean ± SD of three independent experiments; read-out: RA (%) @ 100 µM MurE
Metric: remaining activity at 100 µM (%)
Numbers only, in %.

Please review the following examples before continuing.
molecule=COc1cc(O)c(CC=C(C)C)c(O)c1C(=O)/C=C/c1ccc(O)cc1 metric="remaining activity at 100 µM" measured=82
molecule=COc1cc([C@@H]2[C@H]3CO[C@@]4(O)C(=O)[C@@H]2C=C([C@H]2Oc5cc(O)cc(O)c5C(=O)[C@@H]2O)[C@@H]34)ccc1O metric="remaining activity at 100 µM" measured=93
molecule=CC(C)=CCc1c(O)cc(O)c2c1O[C@H](c1ccc(O)cc1)CC2=O metric="remaining activity at 100 µM" measured=87
molecule=O=c1c(O)c(-c2ccccc2)oc2cc(O)cc(O)c12 metric="remaining activity at 100 µM" measured=100
molecule="CC1OC(OCC2OC(Oc3c(-c4ccc(O)c(O)c4)oc4cc(O)cc(O)c4c3=O)C(O)C(O)C2O)C(O)C(O)C1O (centres unmarked)" metric="remaining activity at 100 µM" measured=100
molecule=COc1cc(O)c(CC=C(C)C)c2c1C(=O)C[C@@H](c1ccc(O)cc1)O2 metric="remaining activity at 100 µM" measured=77

# batch size: 2; output remaining activity at 100 µM per entry
1. Cc1c(O)cc(O)c2c1O[C@H](c1ccccc1)CC2=O
2. O=c1cc(-c2ccc(O)c(O)c2)oc2cc(OC3OC(CO)C(O)C(O)C3O)cc(O)c12 (centres unmarked)

Reply:
[100, 100]

====

- Tested on: S. aureus (ATCC 29,213)
- Protocol text: Antibacterial assay, broth microdilution MIC
- Assay type: cell-based
- Run parameters: Staphylococcus aureus, ATCC29; broth microdilution, 20 h at 35 °C; read-out: MIC S.aureus
Provide the recorded MIC for the entries that follow.

Please review the following examples before continuing.
record_smiles=O=c1c(O)c(-c2cc(O)c(O)c(O)c2)oc2cc(O)cc(O)c12 target_or_test_system="S. aureus (ATCC 29,213)" measured="> 250 µM"
record_smiles=CC(C)=CCc1c(O)cc(O)c2c1O[C@H](c1ccc(O)cc1)CC2=O target_or_test_system="S. aureus (ATCC 29,213)" measured="62 µM"
record_smiles=O=c1c(O[C@@H]2O[C@H](CO)[C@@H](O)[C@H](O)[C@H]2O)c(-c2ccc(O)c(O)c2)oc2cc(O)cc(O)c12 target_or_test_system="S. aureus (ATCC 29,213)" measured="> 250 µM"

For the next question, use this compound.
Query: # get_value(readout='MIC', item= `O=c1c(O)c(-c2ccc(O)c(O)c2)oc2cc(O)cc(O)c12` )
Reply: 250 µM
